test system: P388 leukemia ip, CD2F1 mice, survival T/C; assay: NCI In Vivo Anticancer Drug Screen. Data for tumor model P388 Leukemia (intraperitoneal) in CD2F1 (CDF1) mice; details: endpoint: median survival time; dose: 100.0 mg/kg/injection; schedule: Q01DX009 (ip); vehicle: Klucel (hydroxypropylcellulose) (HPC); higher = longer survival
Toxic doses and inconclusive results are not listed.
metricName: T/C

What does the record list as T/C for "C=CC#CC#Cc1ccc(C#CC)s1" ?
104 % of control

What does the record list as T/C for "CSc1nc2ccc(CN3C(=O)c4ccccc4C3=O)cc2s1" ?
98 % of control

What does the record list as T/C for "CCCCCCCCCCCCOC(=O)c1ccc(N)cc1" ?
101 % of control

What does the record list as T/C for CC1OC(OC2C(OC3C[C@@]4(C)C(C[C@H](O)[C@H]5[C@H](C6(C)CCC(C(C)(C)O)O6)CCC54C)[C@]4(C)CC[C@@H](O)C(C)(C)C34)OC(CO)C(O)C2O)C(O)C(O)C1O (stereo partly specified) (tested in a mixture with another compound) ?
101 % of control

What does the record list as T/C for "Cc1cc(C)n(C(N)=NC(=O)c2ccccc2)n1" ?
100 % of control

What does the record list as T/C for "COc1ccc(OC)c(NC(=O)Nc2nc(C)cs2)c1" ?
93 % of control

What does the record list as T/C for "C=CCCc1cc(OC)ccc1C(=O)C(C)C" ?
102 % of control

What does the record list as T/C for CC(C)N1CC(CCN2CCOCC2)C(c2ccccc2)(C2CCCC2)C1=O (stereo unspecified) ?
101 % of control

What does the record list as T/C for C=CCN1C(=O)NC(=O)C(c2ccccc2)C1=O (stereo unspecified) ?
100 % of control

What does the record list as T/C for "Cc1cc(C)n(C(N)=NC(=O)c2ccc([N+](=O)[O-])cc2)n1" ?
101 % of control

What does the record list as T/C for "O=C(O)c1cccc([N+](=O)[O-])c1O" ?
105 % of control

What does the record list as T/C for "Cc1c(C)c2ccccc2[nH]c1=O" ?
104 % of control

What does the record list as T/C for "COc1cccc(NC(=S)NCc2cccnc2)c1" ?
91 % of control

What does the record list as T/C for "CC(=O)OCc1c(COC(C)=O)c(-c2ccc(Cl)c(Cl)c2)n2c1CCC2" ?
122 % of control

What does the record list as T/C for Oc1ccc(C2C=CCC2)cc1C1C=CCC1 (stereo unspecified) ?
106 % of control

What does the record list as T/C for "COc1cc(/C=C/c2cc(OC)c(OC)c(OC)c2)oc(=O)c1" ?
104 % of control

What does the record list as T/C for "O=S(=O)(OCC#CCOS(=O)(=O)c1ccc(Cl)c(Cl)c1)c1ccc(Cl)c(Cl)c1" ?
92 % of control

What does the record list as T/C for "C=CCn1c(=O)n(C)c(=O)c2[nH]c(Cl)nc21" ?
112 % of control

What does the record list as T/C for "COc1ccc(NS(=O)(=O)c2ccc(C)cc2)c([N+](=O)[O-])c1" ?
115 % of control

What does the record list as T/C for "Cc1ccc(N=Cc2ccccc2O)c(Br)c1" ?
89 % of control

What does the record list as T/C for CS(=O)(=O)OCC(Br)C(Br)COS(C)(=O)=O (stereo unspecified) ?
87 % of control

What does the record list as T/C for "COc1ccc(C2=NOP(c3ccccc3)(c3ccccc3)(c3ccccc3)C2)cc1" ?
101 % of control

What does the record list as T/C for "Cc1ccc(Nc2cc(C(=O)O)c(Nc3ccc(C)cc3)cc2C(=O)O)cc1" ?
111 % of control

What does the record list as T/C for "CCCCCCNC(=S)Nc1ccc2cc(C)ccc2n1" ?
91 % of control

What does the record list as T/C for "O=Cc1ccc(S(=O)(=O)F)cc1" ?
97 % of control

What does the record list as T/C for "O=C(C[n+]1cccc2ccccc21)c1ccc(F)cc1" ?
97 % of control
